Assay: HT1080 cell viability loss – fluorescence readout (AID 620);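 also: cells exposed to compound overnight then 4 h with Alamar Blue; 0% = vehicle DMSO and 100% = killing control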
Conditions: at 10 µM, stronger effect = higher value
About 360 (0.41%) of roughly 87,000 compounds were called active. The sample as a whole holds a higher share of actives than the screen did.
Kindly supply the reported cytotoxicity values for the records listed here.

What does the data say about its cytotoxicity? Entry: `Cc1ccnc(NS(=O)(=O)c2ccc(Oc3ccccc3)cc2)c1` 7.3% (inactive)

Entry CCCOc1c(OC)cccc1C1CC(=O)Nc2cc3c(cc21)OCCO3 (stereo unspecified) has what cytotoxicity? -3.5% (inactive)

What does the record list as cytotoxicity for `Cc1cnc(C(=O)Nc2ccc(F)cc2)cn1` ? -11.7% (inactive)

Using the record for C=CC1C(N2CCOCC2)C(C)(C)S1(=O)=O (stereo unspecified) , report its cytotoxicity. 0.5% (inactive)

So what's the measured cytotoxicity for this one? `CN(C)S(=O)(=O)c1ccc(S(=O)(=O)N(CC(=O)Nc2ccccc2)Cc2ccco2)cc1` 4.9% (inactive)

Quick check: cytotoxicity of CCCCOc1ccccc1C1CC(=O)NC2=C1C(=O)CCC2 (stereo unspecified) ? 56% (active)

Consider the compound COC1=C(OC)c2ccccc2C(C(=O)O)N/C1=C(/C)Nc1ccncc1 (stereo unspecified) and give its measured cytotoxicity. -1% (inactive)

Entry under review: `O=C(OCC#CCSc1nnc(-c2ccc([N+](=O)[O-])cc2)o1)c1cccs1` . Reported cytotoxicity? -10.8% (inactive)

Request the reported cytotoxicity associated with CCCOc1ccccc1C1CC(=O)NC2=C1C(=O)CCC2 (stereo unspecified) 39.4% (inactive)

Endpoint output: cytotoxicity of CCOc1ccccc1C1CC(=O)NC2=C1C(=O)CCC2 (stereo unspecified) . Value? 11.2% (inactive)

Quick one: cytotoxicity for CCCOc1c(OC)cccc1C1CC(=O)Nc2cc3c(cc21)OCO3 (stereo unspecified) ? -2.6% (inactive)

----------
Assay: HT1080 cell viability loss – fluorescence readout (AID 620);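 also: cells exposed to compound overnight then 4 h with Alamar Blue; 0% = vehicle DMSO and 100% = killing control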
Conditions: at 10 µM
About 360 (0.41%) of roughly 87,000 compounds were called active. No stated cut-off is given here; in the data, active means cytotoxicity above about 50%; inactive means the rest. This is one part of a sample in which actives are shown more often than they occur.
Select the matching outcome among active, inactive

For `COc1ccc(C(=O)n2nc(-c3ccco3)nc2N)cc1` , what call appears in the results of this test? inactive

Record request — test call for `CCn1c(-c2ccco2)nc2ccccc21` inactive

Hi team, can someone confirm the assay call for `O=C(N1CCOCC1)N1CCN(c2ccccn2)CC1` ? inactive

Each compound tested received a call. Report the one for `O=C(NC1CCN(C(=O)N2c3ccccc3Sc3ccccc32)CC1)c1ccco1` . inactive

Called result for `O=C(c1ccco1)N1c2ccccc2Sc2ccccc21` inactive

What is the recorded call for this compound in the test? `O=C(CN1CCN(c2ccccn2)CC1)N1c2ccccc2Sc2ccc(C(F)(F)F)cc21` inactive

Please state the recorded outcome for this compound: `O=C(CSc1ncn[nH]1)Nc1ccccc1Sc1ccc(Cl)cc1` inactive

GET /call?item= `O=C(N1CCN(c2ccccn2)CC1)N1c2ccccc2Sc2ccccc21` returns the recorded outcome of this test. active

Per the records of this test, what outcome belongs to `CCN(CC)C(=O)CSc1nc2sc(C)c(C)c2c(=O)[nH]1` ? inactive

Test call, this compound: `Cn1c(=NC(=O)CCl)sc2ccccc21` active

For CC1(C)CC2CC(C)(CN2C(=O)Cc2ccccc2)C1 (configuration not stated) , which call appears in the assay record? inactive

I'd appreciate the recorded outcome for `Nc1nc(SCC(=O)Nc2ccccc2-c2ccccc2)n[nH]1` from this test. inactive

----------
Test: HT1080 cell viability loss – fluorescence readout (AID 620);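 also: cells exposed to compound overnight then 4 h with Alamar Blue; 0% = vehicle DMSO and 100% = killing control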
Conditions: at 10 µM, stronger effect = higher value
Screen size: about 87,000 compounds; about 360 (0.41%) were called active. The list comes from a sample in which actives are over-represented; it also holds close analogues and randomly drawn compounds.
quantity: cytotoxicity (%)
# value in %; strip the unit string

Can you share its cytotoxicity? I mean this molecule: `CCOC(=O)c1ccc2ncc(C(=O)OCC)c(NCc3ccco3)c2c1` 1.9

// query cytotoxicity value for entry `c1ccc(-c2nnc3sc(-c4cc5ccccc5o4)nn23)cc1` -3.1

Could you share which cytotoxicity value was measured for `CCOc1ccc(NC(=O)Cn2nnc(C(=O)NCc3ccco3)c2N)cc1` ? 11.4

# input molecule: `CCCOc1ccc2ccccc2c1/C=N/n1c(C)nnc1-n1nc(C)cc1C` ; wanted: its cytotoxicity 61.6

Sample `COc1ccc(CCN/C=C2/CC(=O)NC2=O)cc1OC` — what was its cytotoxicity? 0.2

Return reported cytotoxicity; argument: `COc1ccc(NC(=O)Cn2nnc(C(=O)NCc3ccco3)c2N)c(OC)c1` -0.4

# get_value(readout='cytotoxicity', item= `Cc1nnc2sc(-c3cc4ccccc4o3)nn12` ) 0.8

Requested read-out: cytotoxicity. Entry: `COc1ccccc1/C=N/n1c(C)nnc1-n1nc(C)cc1C` 9.8

// lookup cytotoxicity for `CCCCN1Cc2cc(C(=O)c3cc(F)ccc3O)cnc2NC1=O` -2.9

Param item = `CN1Cc2cc(C(=O)c3cc(Cl)cc(CSc4ncccn4)c3O)cnc2NC1=O` ; retrieve measured cytotoxicity. 70.1

Any idea what its cytotoxicity is? The molecule is `CCOC(=O)c1c(C)[nH]c(C(=O)COC(=O)CNC(=O)C2CCCCC2)c1C` 0.3

----------
Experiment: HT1080 cell viability loss – fluorescence readout (AID 620);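 also: cells exposed to compound overnight then 4 h with Alamar Blue; 0% = vehicle DMSO and 100% = killing control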
Conditions: at 10 µM, stronger effect = higher value
The whole screen tested about 87,000 compounds, of which about 360 (0.41%) were called active. The sample holds actives, similar compounds and a random draw of the others, so the mix is not that of the screen.
quantity: cytotoxicity (%)
Give your result in % as a bare value.

Which cytotoxicity is listed for `Cn1c(=O)c(=O)n(C)c2cc(S(=O)(=O)N3CCc4ccccc43)ccc21` ? -4

Which cytotoxicity reading was recorded for the compound CCOC(=O)c1[nH]c2c(c1C)C(=O)CC(c1ccc(F)cc1)C2 (configuration not stated) ? 70.2

// lookup cytotoxicity for `Cc1ccc(NC(=O)c2nnn(CC(=O)Nc3ccccc3)c2N)cc1C` -2.3

# input compound: `COc1cc(OC)cc(-c2nnc(SCC(=O)N3CCCC3)o2)c1` ; wanted: its cytotoxicity 9

Can you share its cytotoxicity? I mean this compound: `CCOc1ccccc1N1CCN(C(=O)C2c3ccccc3Oc3ccccc32)CC1` -0.5

So what does the record say about cytotoxicity for `CCOc1ccc(-c2cnc(SCC(N)=O)nc2N)cc1` ? 3.8

Fill blank: measured cytotoxicity of the compound `CC(C)c1ccc(C(=O)CSc2ncn[nH]2)cc1` is ____. -3.4

Name the reported cytotoxicity value associated with the compound `CC(=O)N1CCc2cc(C(=O)CN3CCCCC3)ccc21` -6.3

Which cytotoxicity value is on record for CCc1ccccc1NC(=O)CN1C(=O)C2CCCN2c2ncc(Cl)cc21 (configuration not stated) ? -1.2

Reported cytotoxicity for COc1ccc(OC)c(C2CC(=O)c3c([nH]c(C(=O)OC(C)C)c3C)C2)c1 (configuration not stated) : what is it? 10.6

If you can, please state the reported cytotoxicity value of CCOC(=O)C1=C(C)NC(SCC(=O)O)=C(C#N)C1c1ccco1 (configuration not stated) . -8

Which cytotoxicity value belongs to `Cc1occc1C(=O)Nc1ccc2c(c1)OCCO2` ? 11.2

Name the recorded cytotoxicity for Cc1c(C(=O)N2CCOCC2)[nH]c2c1C(=O)CC(c1ccccc1Cl)C2 (configuration not stated) . 34.2

Which measured cytotoxicity value corresponds to `CCOC(=O)N1CCN(C(=O)CSc2nc3ccccc3c(=O)n2-c2ccccc2)CC1` ? 5.2

So what's the measured cytotoxicity for this one? `COc1ccccc1NC(=O)c1oc2ccccc2c1NC(=O)c1ccco1` 0.3

# input compound: COCCOC(=O)c1[nH]c2c(c1C)C(=O)CC(c1ccc(F)cc1)C2 (configuration not stated) ; wanted: its cytotoxicity -9

Would you mind telling me what cytotoxicity value was observed for `COc1ccc(CC(=O)c2ccccc2C(=O)O)cc1` ? -0.2

Could you share which cytotoxicity value was measured for `Cc1noc(C)c1CSc1nc2ccccc2c(=O)n1-c1ccc(Cl)cc1` ? -2.7

Suppose we examine the compound Cc1c(C(=O)O)[nH]c2c1C(=O)CC(c1ccc(Cl)cc1)C2 (configuration not stated) ; what cytotoxicity value has been reported? -4.3

Give the measured cytotoxicity of `COc1ccccc1NC(=O)c1oc2ccccc2c1NC(=O)c1cc(OC)c(OC)c(OC)c1` . 50

What value of cytotoxicity has been reported for the following compound? `COCC(=O)Nc1c(C(=O)Nc2ccccc2OC)oc2ccccc12` -17.1

For the compound shown here, `O=C(COc1ccccc1)N1CCN(S(=O)(=O)c2ccc(Cl)cc2)CC1` , give the reported cytotoxicity. 17.2

Query: cytotoxicity; subject: `c1ccc2[nH]c(CSc3nc4ccccc4s3)nc2c1` -3.3

# cytotoxicity lookup, item CC(=O)OC(C(=O)NC1CCCCC1)c1ccc(C#N)cc1 (configuration not stated) -3.2

Suppose we examine the compound CC1=C(C(=O)OCc2ccccc2)C(c2ccccc2OC(=O)c2ccc(I)cc2)NC(=O)N1CCCC(=O)O (configuration not stated) ; what cytotoxicity value has been reported? -5.3

Sample `Cc1noc(C)c1CSc1nnc(-c2ccccc2)n1Cc1ccco1` — what was its cytotoxicity? 2.6

Can you share its cytotoxicity? I mean this compound: CC1=C(C(=O)OCc2ccccc2)C(c2ccco2)C2=C(CC(C)(C)CC2=O)N1 (configuration not stated) -6.1
